Data provenance is ChEMBL document CHEMBL5316308.

# system-name: Bromodomain-containing protein 4 (Homo sapiens, UniProt O60885)
# assay-summary: Inhibition of recombinant BRD4 (unknown origin) incubated for 120 mins by TR-FRET assay relative to control
# Set-up: concentration or dose not given beside the values
recorded-metric: inhibition (%)
One number for each entry, in %.

1. COc1cc2c(cc1-c1c(C)noc1C)[nH]c1ncnc(NCCCCCCC(=O)NO)c12 93.7
2. COc1cc2c(cc1-c1c(C)noc1C)[nH]c1nc(C)nc(NCCCCCC(=O)Nc3ccc(/C=C/C(=O)NO)cc3)c12 58.3

Now take the following compound into account.
The recorded inhibition for COc1cc2c(cc1-c1c(C)noc1C)[nH]c1nc(C)nc(NCCCCCCCC(=O)NO)c12 is 86.2
